# C50 per entry for Escherichia coli
Write the value in µM as a bare number.

Illustrative cases are given below, each with its answer.
- compound: "NC[C@@H]1O[C@@H](O[C@H]2[C@H](O)[C@@H](O[C@H]3O[C@H](CO)[C@@H](O)[C@H](N)[C@H]3O)[C@H](N)C[C@@H]2N)[C@@H](O)[C@H](O)[C@H]1O"
  assay_target: "Escherichia coli"
  measurement_name: "C50"
  value: 0.95
- compound: "NCC1OC(OC2C(N)CC(NC(=O)C3(O)CCNC3)C(OC3OC(CO)C(O)C(N)C3O)C2O)C(N)CC1O (configuration not stated)"
  assay_target: "Escherichia coli"
  measurement_name: "C50"
  value: 0.12

For CN[C@@H]1[C@@H](O)[C@@H](O[C@@H]2[C@@H](O)[C@H](O[C@H]3OC(CN)=CC[C@H]3N)[C@@H](N)C[C@H]2N)OC[C@]1(C)O [SISOMICIN] on Escherichia coli, measured C50 was 0.31

Known value: Escherichia coli C50 of the compound CN[C@@H]1[C@@H](O[C@H]2O[C@H](CO)[C@@H](N)[C@H](O)[C@H]2O)OC2C[C@@H](N)[C@@H](O[C@H]3[C@H](O)[C@@H](O)[C@H](N)C[C@@H]3N)OC2[C@@H]1O (some centres not stated) [APRAMYCIN] equals 0.87

Tested system Escherichia coli; C50 recorded for CCN[C@@H]1C[C@H](N)[C@@H](O[C@H]2OC(CN)=CC[C@H]2N)[C@H](O)[C@H]1O[C@H]1OC[C@](C)(O)[C@H](NC)[C@H]1O [NETILMICIN] was 0.32

---

measurement_protocol: Percent killing of the total Escherichia coli K12 (ATCC 25868) cells at the C50 concentration was determined.
Format: ADME
measurement_name: Kill at C50 (%)
Expressed in %, but write only the number.

# count of solved cases: 3
- compound: "COC1C(O)C(N)C(OC2OC([C@H](C)N)CCC2N)C(O)C1N(C)C(=O)CN (some centres undefined)"
  Kill at C50, %: 93
- compound: "NCC1OC(OC2C(N)CC(NC(=O)C3(O)CCNC3)C(OC3OC(CO)C(O)C(N)C3O)C2O)C(N)CC1O (centres undefined)"
  Kill at C50, %: 65
- compound: "NCC1OC(OC2C(N)CC(NC(=O)C3(O)CNC3)C(OC3OC(CO)C(O)C(N)C3O)C2O)C(N)CC1O (centres undefined)"
  Kill at C50, %: 50

For reference, reported Kill at C50 for CN[C@@H]1[C@@H](O[C@H]2O[C@H](CO)[C@@H](N)[C@H](O)[C@H]2O)OC2C[C@@H](N)[C@@H](O[C@H]3[C@H](O)[C@@H](O)[C@H](N)C[C@@H]3N)OC2[C@@H]1O (some centres undefined) stands at 95

---

# collection of C50 values tested on Escherichia coli;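 further: escherichia coli cells, read-out is the rate of enhanced [3H]DHS uptake, C50 being the level that yields half of the maximal rate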

Reference set, count: 8
- compound: "NC[C@@H]1O[C@H](O[C@H]2[C@@H](O)[C@H](O[C@@H]3[C@@H](O)[C@H](N)C[C@H](N)[C@H]3O[C@H]3O[C@H](CO)[C@@H](O)C[C@H]3N)O[C@@H]2CO)[C@H](N)[C@@H](O)[C@@H]1O[C@H]1O[C@H](CO)[C@@H](O)[C@H](O)[C@@H]1O"
  assay_target: "Escherichia coli"
  C50: "0.18 µM"
- compound: "O=C(N[C@H](CO)[C@H](O)c1ccc([N+](=O)[O-])cc1)C(Cl)Cl"
  assay_target: "Escherichia coli"
  C50: "> 50 µM"
- compound: "NCC[C@H](O)C(=O)N[C@@H]1C[C@H](N)[C@@H](O[C@H]2O[C@H](CN)[C@@H](O)[C@H](O)[C@H]2O)[C@H](O)[C@H]1O[C@H]1O[C@H](CO)[C@@H](O)[C@H](N)[C@H]1O (stereo in doubt)"
  assay_target: "Escherichia coli"
  C50: "0.21 µM"
- compound: "CN1C(NC2OC(CO)C(OC(N)=O)C(O)C2NC(=O)CC(N)CCCN)=N[C@@H]2[C@H](O)CNC(=O)[C@H]21 (some centres undefined)"
  assay_target: "Escherichia coli"
  C50: "0.1 µM"
- compound: "NCC1OC(OC2C(N)CC(NC(=O)C3(O)CNC3)C(OC3OC(CO)C(O)C(N)C3O)C2O)C(N)CC1O (centres undefined)"
  assay_target: "Escherichia coli"
  C50: "0.12 µM"
- compound: "NC[C@H]1O[C@H](O[C@H]2[C@H](O[C@@H]3O[C@H](CO)[C@@H](O)[C@H]3O)[C@@H](O)[C@H](N)C[C@@H]2N)[C@H](N)[C@@H](O)[C@@H]1O"
  assay_target: "Escherichia coli"
  C50: "1.2 µM"
- compound: "NC[C@H]1O[C@H](O[C@H]2[C@H](O)[C@@H](O[C@H]3O[C@H](CO)[C@@H](O)[C@H](N)[C@H]3O)[C@H](N)C[C@@H]2N)[C@H](N)[C@@H](O)[C@@H]1O"
  assay_target: "Escherichia coli"
  C50: "0.27 µM"
- compound: "CNC1C(OC2OC(CO)C(N)C(O)C2O)OC2CC(NC(=O)CN)C(OC3C(N)CC(N)C(O)C3O)OC2C1O (centres undefined)"
  assay_target: "Escherichia coli"
  C50: "0.45 µM"

Next compound, C50 to be filled in.
Here COC1C(O)C(N)C(OC2OC([C@H](C)N)CCC2N)C(O)C1N(C)C(=O)CN (some centres undefined) was tested on Escherichia coli, and its C50 came to 0.86 µM
